Recorded measurements of Emax, one per entry
Target: human MC3R (Homo sapiens)
Construct: expressed in transfected cells; host or cells: HEK-293 cells stably expressing the GScAMP22F split-luciferase cAMP sensor (parent reporter line from Promega); MC3R clone generated in-house, G418 selection
Sequence (P41968 whole entry): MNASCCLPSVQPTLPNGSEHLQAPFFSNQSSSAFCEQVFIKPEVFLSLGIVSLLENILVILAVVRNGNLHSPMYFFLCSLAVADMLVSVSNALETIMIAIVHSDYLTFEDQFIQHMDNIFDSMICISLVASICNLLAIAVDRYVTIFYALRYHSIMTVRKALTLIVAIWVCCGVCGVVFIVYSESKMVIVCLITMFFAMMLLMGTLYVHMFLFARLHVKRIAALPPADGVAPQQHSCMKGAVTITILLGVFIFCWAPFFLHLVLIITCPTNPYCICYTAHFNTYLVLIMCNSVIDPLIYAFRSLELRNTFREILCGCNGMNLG
Measurement Description: split-luciferase cAMP sensor assay, agonist mode (measurement window 1), hMC3R
Type: cell-based
Condition: % maximal activation, agonist mode; read-out: MC3R cAMP % max activation
Protocol: The stable cell lines were grown and maintained in selection media consisting of Dulbecco's modified Eagle media (DMEM) with 4.5 g/l D-glucose, and 4 mM L-glutamine (Thermo Fisher Scientific, Waltham, MA), supplemented with 10% fetal bovine serum, 100 units/ml penicillin, 100 μg/ml streptomycin, 2.5 μg/ml amphotericin B, 200 μg/ml hygromycin B (for positive selection of the GScAMP22f luciferase reporter), and Geneticin™ (G418) 700 μg/ml (for MC3R or MC4R selection). […]
Positions of bridges follow the written chain, without caps; N, C: chain ends. Non-standard residues stand in square brackets, D forms with d. Residues, ends and D or L forms follow the SMILES beside them. Cit = NC(=O)NCCC[C@H](N)C(=O)O; NMeA = CN[C@@H](C)C(=O)O; Nle = CCCC[C@H](N)C(=O)O; Aib = CC(C)(N)C(=O)O
Write the answer as a number in %, unit excluded.

# count of solved cases: 5
CCCC[C@H](NC(=O)[C@H](CCCNC(=N)N)NC(C)=O)C(=O)N[C@H]1CSSC[C@@H](C(N)=O)NC(=O)[C@H](Cc2c[nH]c3ccccc23)NC(=O)[C@H](CCCNC(=N)N)NC(=O)[C@@H](Cc2ccccc2)NC(=O)[C@H](CCCNC(=N)N)NC1=O [CTX-1228, Arg-Nle-cyclo(Cys-Arg-D-Phe-Arg-Trp-Cys)] (Ac-R[Nle]CR[dF]RWC-NH2; disulfide 3-8 (inferred)); 93
CC(=O)N[C@@H](CCCNC(=N)N)C(=O)N[C@H]1CSSC[C@@H](C(N)=O)NC(=O)[C@H](Cc2c[nH]c3ccccc23)NC(=O)[C@H](CCCNC(=N)N)NC(=O)[C@@H](Cc2ccccc2)NC(=O)[C@H](CCCNC(N)=O)NC(=O)[C@@H](C)NC1=O; 28
CC1(C)NC(=O)CSC[C@@H](C(N)=O)NC(=O)[C@H](Cc2c[nH]c3ccccc23)NC(=O)[C@H](CCCNC(=N)N)NC(=O)[C@@H](Cc2ccccc2)NC(=O)[C@H](CCCNC(N)=O)NC1=O [CTX-1649] ({CH2CO}-[Aib][Cit][dF]RWC-NH2; thioether N-6); 79
CC(=O)N[C@@H](CCCNC(=N)N)C(=O)N[C@H]1CSSC[C@@H](C(N)=O)NC(=O)[C@@H](Cc2c[nH]c3ccccc23)NC(=O)[C@H](CCCNC(=N)N)NC(=O)[C@@H](Cc2ccccc2)NC(=O)[C@H](CCCNC(=N)N)NC(=O)[C@H](C)N(C)C1=O [CTX-1269] (Ac-RC[NMeA]R[dF]R[dW]C-NH2; disulfide 2-8 (inferred)); 39
CC(=O)N[C@H]1CSSC[C@@H](C(N)=O)NC(=O)[C@H](Cc2c[nH]c3ccccc23)NC(=O)[C@H](CCCNC(=N)N)NC(=O)[C@@H](Cc2ccccc2)NC(=O)[C@H](CCCNC(=N)N)NC(=O)C(C)(C)NC1=O [CTX-1632, cyclo(Cys-Aib-Arg-D-Phe-Arg-Trp-Cys)] (Ac-C[Aib]R[dF]RWC-NH2; disulfide 1-7); 77

Emax reading for N=C(N)NCCC[C@@H]1NC(=O)CNC(=O)CSC[C@@H](C(N)=O)NC(=O)[C@H](Cc2ccccc2)NC(=O)[C@H](CCCNC(=N)N)NC(=O)[C@@H](Cc2ccccc2)NC1=O [CTX-1654] ({CH2CO}-GR[dF]RFC-NH2; thioether N-6) : 43

So for C[C@H]1NC(=O)CSC[C@@H](C(N)=O)NC(=O)[C@H](Cc2c[nH]c3ccccc23)NC(=O)[C@H](CCCNC(=N)N)NC(=O)[C@@H](Cc2ccccc2)NC(=O)[C@H](CCCNC(=N)N)NC1=O [CTX-1642] ({CH2CO}-[dA]R[dF]RWC-NH2; thioether N-6) , the logged Emax turned out to be 90

Emax measured on CC(=O)N[C@H]1CSSC[C@@H](C(N)=O)NC(=O)[C@H](Cc2c[nH]c3ccccc23)NC(=O)[C@H](CCCNC(=N)N)NC(=O)[C@@H](Cc2ccccc2)NC(=O)[C@H](CCCNC(N)=O)NC(=O)C(C)(C)NC1=O [CTX-1633, cyclo(Cys-Aib-Cit-D-Phe-Arg-Trp-Cys)] (Ac-C[Aib][Cit][dF]RWC-NH2; disulfide 1-7 (inferred)) = 45
